Kindly state Kb for each of the entries shown.
# TARGET DESC: Melanocortin receptor 4 (Mus musculus, UniProt P56450)
# Sequence (P56450 whole entry): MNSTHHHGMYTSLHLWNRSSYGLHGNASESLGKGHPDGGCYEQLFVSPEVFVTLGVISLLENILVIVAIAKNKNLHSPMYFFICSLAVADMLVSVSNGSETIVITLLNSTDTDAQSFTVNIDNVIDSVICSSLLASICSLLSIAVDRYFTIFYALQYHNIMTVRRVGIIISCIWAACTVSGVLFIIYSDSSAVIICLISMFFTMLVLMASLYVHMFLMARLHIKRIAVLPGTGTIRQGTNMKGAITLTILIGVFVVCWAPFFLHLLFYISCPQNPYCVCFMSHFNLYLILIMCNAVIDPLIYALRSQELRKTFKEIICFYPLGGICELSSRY
# TEST DETAILS: Antagonist activity at mouse MC4R assessed as antagonist potency by alphascreen cAMP assay
# Assay type: functional
# CONDITION LABEL: read-out: pA2 (converted)
Where a SMILES comes first, the peptide text is derived from it.

Give recorded Kb. `C[C@@H]1NC(=O)[C@H](CC(N)=O)NC(=O)[C@H](Cc2ccccc2)NC(=O)CN(Cc2ccccc2)C(=O)[C@H](CCCNC(=N)N)NC(=O)[C@@H]2CCCN2C(=O)[C@H]2CCCN2C(=O)[C@H](Cc2ccccc2)NC1=O` > 3.16 µM

Give recorded Kb. CN1CC(=O)N[C@@H](Cc2ccccc2)C(=O)N2CCC[C@@H]2C(=O)N2CCC[C@H]2C(=O)N[C@@H](CCCNC(=N)N)C(=O)N[C@@H](Cc2ccccc2)C(=O)N[C@@H](Cc2ccccc2)C(=O)N[C@@H](CC(N)=O)C1=O (HELM PEPTIDE1{P.R.F.F.N.[Sar].F.[dP]}$PEPTIDE1,PEPTIDE1,1:R1-8:R2$$$V2.0) > 3.16 µM

Give recorded Kb. `C[C@@H]1NC(=O)[C@H](CC(N)=O)NC(=O)[C@H](Cc2ccccc2)NC(=O)[C@H](Cc2ccccc2)NC(=O)[C@H](CCCNC(=N)N)NC(=O)[C@@H]2CCCN2C(=O)[C@H]2CCCN2C(=O)CN(Cc2ccccc2)C1=O` > 3.16 µM

Give recorded Kb. `C[C@@H]1NC(=O)[C@H](CN)NC(=O)[C@H](Cc2ccccc2)NC(=O)[C@H](Cc2ccccc2)NC(=O)[C@H](CCCNC(=N)N)NC(=O)[C@@H]2CCCN2C(=O)[C@H]2CCCN2C(=O)CN(Cc2ccccc2)C1=O` 0.251 µM

Give recorded Kb. C[C@@H]1NC(=O)[C@H](CN)NC(=O)[C@H](Cc2ccccc2)NC(=O)[C@H](Cc2ccccc2)NC(=O)CN(CCCNC(=N)N)C(=O)[C@@H]2CCCN2C(=O)[C@H]2CCCN2C(=O)[C@H](Cc2ccccc2)NC1=O (HELM PEPTIDE1{[N=C(N)NCCCN(CC(=O)[*:2])[*:1]].F.F.[NC[C@H](N[*:1])C(=O)[*:2]].A.F.[dP].P}$PEPTIDE1,PEPTIDE1,1:R1-8:R2$$$V2.0) > 3.16 µM

Give recorded Kb. `C[C@@H]1NC(=O)CN(CCN)C(=O)[C@H](Cc2ccccc2)NC(=O)[C@H](Cc2ccccc2)NC(=O)[C@H](CCCNC(=N)N)NC(=O)[C@@H]2CCCN2C(=O)[C@H]2CCCN2C(=O)[C@H](Cc2ccccc2)NC1=O` 0.00398 µM

Give recorded Kb. `CN1CC(=O)N[C@@H](Cc2ccccc2)C(=O)N2CCC[C@@H]2C(=O)N2CCC[C@H]2C(=O)N[C@@H](CCCNC(=N)N)C(=O)N[C@@H](Cc2ccccc2)C(=O)N[C@@H](Cc2ccccc2)C(=O)N[C@@H](CN)C1=O` 0.794 µM

Give recorded Kb. C[C@@H]1NC(=O)[C@H](CC(N)=O)NC(=O)[C@H](Cc2ccccc2)NC(=O)[C@H](Cc2ccccc2)NC(=O)CN(CCCNC(=N)N)C(=O)[C@@H]2CCCN2C(=O)[C@H]2CCCN2C(=O)[C@H](Cc2ccccc2)NC1=O (HELM PEPTIDE1{P.[N=C(N)NCCCN(CC(=O)[*:2])[*:1]].F.F.N.A.F.[dP]}$PEPTIDE1,PEPTIDE1,1:R1-8:R2$$$V2.0) > 3.16 µM

====

# TARGET DESC: Melanocortin receptor 4 (Mus musculus)
# TEST DETAILS: Agonist activity at mouse MC4R by alphascreen cAMP assay
pEC50: −log10 of the molar value. Where a SMILES comes first, the peptide text is derived from it.
Kindly state pEC50 for each of the entries shown.

Give recorded pEC50. C[C@@H]1NC(=O)[C@H](CN)NC(=O)[C@H](Cc2ccccc2)NC(=O)[C@H](Cc2ccccc2)NC(=O)CN(CCCNC(=N)N)C(=O)[C@@H]2CCCN2C(=O)[C@H]2CCCN2C(=O)[C@H](Cc2ccccc2)NC1=O (HELM PEPTIDE1{[N=C(N)NCCCN(CC(=O)[*:2])[*:1]].F.F.[NC[C@H](N[*:1])C(=O)[*:2]].A.F.[dP].P}$PEPTIDE1,PEPTIDE1,1:R1-8:R2$$$V2.0) < 4.00

Give recorded pEC50. `C[C@@H]1NC(=O)[C@H](CN)NC(=O)CN(Cc2ccccc2)C(=O)[C@H](Cc2ccccc2)NC(=O)[C@H](CCCNC(=N)N)NC(=O)[C@@H]2CCCN2C(=O)[C@H]2CCCN2C(=O)[C@H](Cc2ccccc2)NC1=O` < 4.00

====

Kindly state EC50 for each of the entries shown.
# TARGET DESC: Melanocortin receptor 3 (Mus musculus, UniProt P33033)
# Sequence (P33033 whole entry): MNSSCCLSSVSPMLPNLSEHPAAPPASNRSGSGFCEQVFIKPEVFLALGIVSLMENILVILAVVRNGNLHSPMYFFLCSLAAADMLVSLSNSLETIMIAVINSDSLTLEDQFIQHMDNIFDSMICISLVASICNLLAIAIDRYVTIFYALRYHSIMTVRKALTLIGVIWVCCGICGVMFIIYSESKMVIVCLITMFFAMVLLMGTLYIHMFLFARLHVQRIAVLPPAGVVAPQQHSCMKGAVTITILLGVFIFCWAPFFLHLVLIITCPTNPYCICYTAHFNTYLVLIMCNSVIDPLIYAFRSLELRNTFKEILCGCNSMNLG
# TEST DETAILS: Agonist activity at mouse MC3R by alphascreen cAMP assay

Give recorded EC50. `C[C@@H]1NC(=O)[C@H](CN)NC(=O)[C@H](Cc2ccccc2)NC(=O)CN(Cc2ccccc2)C(=O)[C@H](CCCNC(=N)N)NC(=O)[C@@H]2CCCN2C(=O)[C@H]2CCCN2C(=O)[C@H](Cc2ccccc2)NC1=O` > 100 µM

Give recorded EC50. `C[C@@H]1NC(=O)CN(CCN)C(=O)[C@H](Cc2ccccc2)NC(=O)[C@H](Cc2ccccc2)NC(=O)[C@H](CCCNC(=N)N)NC(=O)[C@@H]2CCCN2C(=O)[C@H]2CCCN2C(=O)[C@H](Cc2ccccc2)NC1=O` > 100 µM

Give recorded EC50. `C[C@@H]1NC(=O)[C@H](CC(N)=O)NC(=O)CN(Cc2ccccc2)C(=O)[C@H](Cc2ccccc2)NC(=O)[C@H](CCCNC(=N)N)NC(=O)[C@@H]2CCCN2C(=O)[C@H]2CCCN2C(=O)[C@H](Cc2ccccc2)NC1=O` > 100 µM

====

# TARGET DESC: Melanocortin receptor 3 (Mus musculus, UniProt P33033)
# TEST DETAILS: Antagonist activity at mouse MC3R assessed as antagonist potency by alphascreen cAMP assay
# Type: functional
# CONDITION LABEL: read-out: pA2 (converted)
Where a SMILES comes first, the peptide text is derived from it.
Kindly state Kb for each of the entries shown.
Quick reminder: number only, in nM, skip the unit.

Recall the reported Kb of `CN1CC(=O)N[C@@H](Cc2ccccc2)C(=O)N2CCC[C@@H]2C(=O)N2CCC[C@H]2C(=O)N[C@@H](CCCNC(=N)N)C(=O)N[C@@H](Cc2ccccc2)C(=O)N[C@@H](Cc2ccccc2)C(=O)N[C@@H](CN)C1=O` when tested on Melanocortin receptor 3 (Mus musculus, UniProt P33033). 2510

Recall the reported Kb of C[C@@H]1NC(=O)[C@H](CN)NC(=O)[C@H](Cc2ccccc2)NC(=O)[C@H](Cc2ccccc2)NC(=O)CN(CCCNC(=N)N)C(=O)[C@@H]2CCCN2C(=O)[C@H]2CCCN2C(=O)[C@H](Cc2ccccc2)NC1=O (HELM PEPTIDE1{[N=C(N)NCCCN(CC(=O)[*:2])[*:1]].F.F.[NC[C@H](N[*:1])C(=O)[*:2]].A.F.[dP].P}$PEPTIDE1,PEPTIDE1,1:R1-8:R2$$$V2.0) when tested on Melanocortin receptor 3 (Mus musculus, UniProt P33033). 1260

Recall the reported Kb of `C[C@@H]1NC(=O)[C@H](CN)NC(=O)[C@H](Cc2ccccc2)NC(=O)[C@H](Cc2ccccc2)NC(=O)[C@H](CCCNC(=N)N)NC(=O)[C@@H]2CCCN2C(=O)[C@H]2CCCN2C(=O)CN(Cc2ccccc2)C1=O` when tested on Melanocortin receptor 3 (Mus musculus, UniProt P33033). 3160

====

# TARGET DESC: Melanocortin receptor 3 (Mus musculus, UniProt P33033)
# TEST DETAILS: Antagonist activity at mouse MC3R assessed as antagonist potency by alphascreen cAMP assay
# Format: functional
# CONDITION LABEL: read-out: pA2 (converted)
METRIC: Kb (µM)
Quick reminder: number only, in µM, skip the unit.

Give recorded Kb. `C[C@@H]1NC(=O)CN(CCN)C(=O)[C@H](Cc2ccccc2)NC(=O)[C@H](Cc2ccccc2)NC(=O)[C@H](CCCNC(=N)N)NC(=O)[C@@H]2CCCN2C(=O)[C@H]2CCCN2C(=O)[C@H](Cc2ccccc2)NC1=O` 0.126

====

# TARGET DESC: Melanocortin receptor 4 (Mus musculus, UniProt P56450)
# TEST DETAILS: Agonist activity at mouse MC4R by alphascreen cAMP assay
METRIC: EC50

Recall the reported EC50 of `C[C@@H]1NC(=O)CN(CCN)C(=O)[C@H](Cc2ccccc2)NC(=O)[C@H](Cc2ccccc2)NC(=O)[C@H](CCCNC(=N)N)NC(=O)[C@@H]2CCCN2C(=O)[C@H]2CCCN2C(=O)[C@H](Cc2ccccc2)NC1=O` when tested on Melanocortin receptor 4 (Mus musculus, UniProt P56450). > 100 µM

Recall the reported EC50 of `CN1CC(=O)N[C@@H](Cc2ccccc2)C(=O)N2CCC[C@@H]2C(=O)N2CCC[C@H]2C(=O)N[C@@H](CCCNC(=N)N)C(=O)N[C@@H](Cc2ccccc2)C(=O)N[C@@H](Cc2ccccc2)C(=O)N[C@@H](CN)C1=O` when tested on Melanocortin receptor 4 (Mus musculus, UniProt P56450). > 100 µM
